# Protocol Description: recombinant UMI read abundance after kanamycin selection (control-corrected) (log10(CPM+1)); higher = more efficient recombination; extreme values may be limits of the assay; sequences stand for … in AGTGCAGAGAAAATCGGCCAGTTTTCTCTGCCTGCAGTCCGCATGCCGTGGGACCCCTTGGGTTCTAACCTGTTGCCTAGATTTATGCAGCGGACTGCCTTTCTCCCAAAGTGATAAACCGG…AGGTTGGTTTCACT; site = the 11-nt donor;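 note: IS621 bridge recombinase in Escherichia coli cells against a fixed T5 target plasmid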
recombinant UMI read abundance (log10) listing for selected sequences.
Respond with the number and no other words.

INSERT INTO results (input_sequence, property_label, numeric_readout) VALUES
  ('GTCCATTCATGGACCGGTTTTCCCGGTAATCCGTATTTGCT (site GTCCATTCTAG)', 'recombinant UMI read abundance (log10)', 0.671);

Read off the recorded recombinant UMI read abundance (log10) for GTATGCGCATGGACCGGTTTTCCCGGTAATCCGTATTTGTA (site GTATGCGCTTA)
2.35

Find the measured recombinant UMI read abundance (log10) of GCCACTGCATGGACCGGTTTTCCCGGTAATCCGTATTTGCC (site GCAACTGCTGG) and report it.
1.19

Answer with reported recombinant UMI read abundance (log10) of TCCAATCCATGGACCGGTTTTCCCGGTAATCCGTATTTGCC (site TCCAATGCTGG)
0

Output recombinant UMI read abundance (log10) of GCTAGTGCATGGACCGGTTTTCCCGGTAATCCGTATTTGCC (site GCTATTGCTGG)
0

Output measured recombinant UMI read abundance (log10) for this item: CTAGTATCATGGACCGGTTTTCCCGGTAATCCGTATTTGGC (site CTAGTATCTGG)
2.2
